# Test system: Quadruplex RNA
# cond: time 10.0 min
hey, just use TRUE if measured deltaTm1/2 is less than 1 °C, otherwise FALSE

compound	target_entity	label
CONC(=O)Nc1ccc(-c2sc3c(c2CN(C)C)c(=O)n(-c2ccc(OC)nn2)c(=O)n3Cc2c(F)cccc2F)cc1	Quadruplex RNA	TRUE
COc1ccc(-c2cc(=O)c3c(OC)c(OC)c(OC)cc3o2)cc1OC	Quadruplex RNA	FALSE
CCn1cc(C(=O)O)c(=O)c2cc(F)c(N3CCN(C)CC3)cc21	Quadruplex RNA	FALSE
CC[C@@]1(O)C(=O)OCc2c1cc1n(c2=O)Cc2c-1nc1ccccc1c2CCNC(C)C	Quadruplex RNA	FALSE
CN1CCC[C@@H]1Cc1c[nH]c2ccc(CCS(=O)(=O)c3ccccc3)cc12	Quadruplex RNA	TRUE
Cc1cc2ncc(C(=O)NCC(C)(C)NCC(=O)N3CCC[C@H]3C#N)cn2n1	Quadruplex RNA	TRUE
Cc1c(-c2ccccc2)oc2c(C(=O)OCCN3CCCCC3)cccc2c1=O	Quadruplex RNA	FALSE
N[C@@H]1CCCCN(c2c(F)cc3c(=O)c(C(=O)O)cn(C4CC4)c3c2Cl)C1	Quadruplex RNA	FALSE
O=C(c1ccc(OCCN2CCCCC2)cc1)c1c(-c2ccc(O)cc2)sc2cc(O)ccc12	Quadruplex RNA	FALSE
CN(C)CCCOc1nn(Cc2ccccc2)c2ccccc12	Quadruplex RNA	TRUE
COc1c(-c2ccc3cc(NS(C)(=O)=O)ccc3c2)cc(-n2ccc(=O)[nH]c2=O)cc1C(C)(C)C	Quadruplex RNA	TRUE
CCc1cc2c(cc1CC)CC(NC[C@H](O)c1ccc(O)c3[nH]c(=O)ccc13)C2	Quadruplex RNA	TRUE
CN1CCCC(n2nc(Cc3ccc(Cl)cc3)c3ccccc3c2=O)CC1 (stereo not given)	Quadruplex RNA	FALSE
CCc1cc2c(cc1N1CCC(N3CCOCC3)CC1)C(C)(C)c1[nH]c3cc(C#N)ccc3c1C2=O	Quadruplex RNA	FALSE
COc1cc(NC(C)CCCN)c2ncccc2c1 (stereo not given)	Quadruplex RNA	TRUE
CCN(CC)CCCC(C)Nc1c2ccc(Cl)cc2nc2ccc(OC)cc12 (stereo not given)	Quadruplex RNA	FALSE
CCc1c2c(nc3ccc(OC(=O)N4CCC(N5CCCCC5)CC4)cc13)-c1cc3c(c(=O)n1C2)COC(=O)[C@]3(O)CC	Quadruplex RNA	FALSE
COc1cc(O)c(C(=O)Nc2nc(C(=O)NCCN(C(C)C)C(C)C)cs2)cc1OC	Quadruplex RNA	FALSE
Cn1nnc(-c2ccc(-c3ccc(N4C[C@H](CO)OC4=O)cc3F)cn2)n1	Quadruplex RNA	FALSE
